Measured On: panel of 255 wild-type kinases (Homo sapiens, UniProt P12931)
Sequence (P12931 whole entry): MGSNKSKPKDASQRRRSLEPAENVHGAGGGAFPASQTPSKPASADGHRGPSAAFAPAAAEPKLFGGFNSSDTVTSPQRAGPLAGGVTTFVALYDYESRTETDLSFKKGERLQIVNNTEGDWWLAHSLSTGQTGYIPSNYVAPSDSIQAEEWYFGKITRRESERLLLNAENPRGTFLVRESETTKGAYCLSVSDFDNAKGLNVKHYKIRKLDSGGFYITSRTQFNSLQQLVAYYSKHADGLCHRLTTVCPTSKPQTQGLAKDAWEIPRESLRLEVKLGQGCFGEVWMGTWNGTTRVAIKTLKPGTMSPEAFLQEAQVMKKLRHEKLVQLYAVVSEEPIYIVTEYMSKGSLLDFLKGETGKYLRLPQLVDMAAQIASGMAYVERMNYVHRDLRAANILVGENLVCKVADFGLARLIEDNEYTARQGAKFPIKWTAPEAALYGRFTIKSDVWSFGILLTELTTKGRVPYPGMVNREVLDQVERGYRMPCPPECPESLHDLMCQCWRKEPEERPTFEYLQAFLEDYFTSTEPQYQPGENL
Experiment Description: Kinase panel profiling at 1 µmol/L (MSA or IMAP), percentage inhibition
Format: biochemical
Test Parameters: kinase SRC; 1 µmol/L single concentration; read-out: %-inhibition at 1 µmol/L, SRC
inhibition at 1 µM listing for selected compounds.

| Line Notation | Measured On | inhibition at 1 µM [%] |
| --- | --- | --- |
| COc1ccc(CN2C3CC2CN(c2ccc(-c4cc(OCC(C)(C)O)cn5ncc(C#N)c45)cn2)C3)cn1 | panel of 255 wild-type kinases (Homo sapiens, UniProt P12931) | 48 |
| Cn1cnc2c(F)c(Nc3ccc(Br)cc3Cl)c(C(=O)NOCCO)cc21 | panel of 255 wild-type kinases (Homo sapiens, UniProt P12931) | -2.83 |
| COC(=O)N[C@@H](C)CNc1nccc(-c2cn(C(C)C)nc2-c2cc(Cl)cc(NS(C)(=O)=O)c2F)n1 | panel of 255 wild-type kinases (Homo sapiens, UniProt P12931) | -2.16 |
| COc1cc2ncnc(Nc3ccc(F)c(Cl)c3)c2cc1NC(=O)/C=C/CN1CCCCC1 | panel of 255 wild-type kinases (Homo sapiens, UniProt P12931) | 44 |
| Cc1nc(NC(=O)N2CCC[C@H]2C(N)=O)sc1-c1ccnc(C(C)(C)C(F)(F)F)c1 | panel of 255 wild-type kinases (Homo sapiens, UniProt P12931) | 3.29 |
